# targetSystem: BRD4 bromo domain 2 [BRD4(2)] (Homo sapiens, UniProt O60885)
# Construct: N-terminally His6-tagged BRD4(2) (amino acids 357-445)
# assayNotes: BRD4(2)/acetylated peptide H4 binding assay (TR-FRET)
# appliedConditions: inhibition of interaction between His6-tagged BRD4(2) (amino acids 357-445) and acetylated histone H4 peptide
Give pIC50 for every item shown.
One number for each entry, as −log10 of the molar value.

Some solved entries appear below for comparison.
smiles | targetSystem | pIC50
C[C@@H]1C(=O)N(C)c2ccc(Nc3ccc(C(=O)N4CC5(COC5)C4)cc3)nc2N1Cc1ccccc1 | BRD4 bromo domain 2 [BRD4(2)] (Homo sapiens, UniProt O60885) | 6.96
CC(C)N1CCN(C(=O)c2ccc(Nc3ccc4c(n3)N(C3CCCCCC3)[C@H](C)C(=O)N4C)cc2)CC1 | BRD4 bromo domain 2 [BRD4(2)] (Homo sapiens, UniProt O60885) | 6.68
CC(C)N1c2nc(Nc3ccc(S(=O)(=O)N4CCN(C)CC4)cc3)ccc2N(C)C(=O)[C@H]1C | BRD4 bromo domain 2 [BRD4(2)] (Homo sapiens, UniProt O60885) | 6.98
COc1cc(Nc2ccc3c(n2)N(C2CCOCC2)[C@H](C)C(=O)N3C)ccc1S(=O)(=O)N1CCN(C)CC1 | BRD4 bromo domain 2 [BRD4(2)] (Homo sapiens, UniProt O60885) | 7.17
COc1cc(C(=O)NCCN2CCN(C(=O)OC(C)(C)C)CC2)ccc1Nc1ccc2c(n1)N(C(C)C)[C@H](C)C(=O)N2C | BRD4 bromo domain 2 [BRD4(2)] (Homo sapiens, UniProt O60885) | 6.63

Go through the items and report each one's pIC50.
1. C[C@@H]1C(=O)N(C)c2ccc(Nc3ccc(S(=O)(=O)N4CCOCC4)cc3)nc2N1C1CCOCC1
2. COc1cc(C(=O)NCCN2CCN(C)CC2)ccc1Nc1ccc2c(n1)N(C1CCCCC1)[C@H](C)C(=O)N2C

7.40
6.96

Where these numbers come from: patent US20160193206A1
